# Measurement Notes: amyloid nucleation score (Sup35N fusion, yeast selection) (log enrichment); library NNK1; higher = more nucleation; inactive = no reads after selection;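 further: zero at mode of non-aggregating sequences after 7 days selection at 30°C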
Property Label: amyloid nucleation score
// no unit, no text: just the number

Name the recorded amyloid nucleation score for `RQGSDGVSSRKLWFFVRIAI` .
-0.383

Follow-up item: `YPSVLRINTTFASDLTG`
0.894

====

# Measurement Notes: amyloid nucleation score (Sup35N fusion, yeast selection) (log enrichment); library NNK2; higher = more nucleation; inactive = no reads after selection
Property Label: amyloid nucleation score
// no unit, no text: just the number

VSTLRQGWSILQTPNYVRS	-0.219
VRCSVCVGACEHGPVN	1.27
LLPSSFVGGVNDVVELLSCG	0.092
MKCWASPGWTQIQMEPKEGS	0.064
WSYGLLWPSVKLIPACPPAS	0.244
CFSSIQIRDKTVVGDSWMFR	3.58
KVSGRYVEEYDHFPTDLSSL	-0.046
FIKRAHVERFSLPKTPWSVD	-1.3
KWNQKKNRSCFKAQRWCKLP	-0.637
SRDVLVLIGYFSCGVIDSAL	5.16

Name the recorded amyloid nucleation score for `NNDDQSFCAWVFNDVQ` .
0.056

Follow-up item: `YRSSLRHFSVYSYNSFSELL`
0.626

Follow-up item: `IMRVMPICRFVII`
1.25

Follow-up item: `SVFRND`
-0.28

Follow-up item: `ADGFVSSIVLT`
0.006

Follow-up item: `TCLAESGVAMSVS`
0.151
